Measured inhibition at 1 µM values are reported for all entries that follow.
experimental-system: HPK1 (MAP4K1) (Homo sapiens)
Sequence (Q92918 whole entry): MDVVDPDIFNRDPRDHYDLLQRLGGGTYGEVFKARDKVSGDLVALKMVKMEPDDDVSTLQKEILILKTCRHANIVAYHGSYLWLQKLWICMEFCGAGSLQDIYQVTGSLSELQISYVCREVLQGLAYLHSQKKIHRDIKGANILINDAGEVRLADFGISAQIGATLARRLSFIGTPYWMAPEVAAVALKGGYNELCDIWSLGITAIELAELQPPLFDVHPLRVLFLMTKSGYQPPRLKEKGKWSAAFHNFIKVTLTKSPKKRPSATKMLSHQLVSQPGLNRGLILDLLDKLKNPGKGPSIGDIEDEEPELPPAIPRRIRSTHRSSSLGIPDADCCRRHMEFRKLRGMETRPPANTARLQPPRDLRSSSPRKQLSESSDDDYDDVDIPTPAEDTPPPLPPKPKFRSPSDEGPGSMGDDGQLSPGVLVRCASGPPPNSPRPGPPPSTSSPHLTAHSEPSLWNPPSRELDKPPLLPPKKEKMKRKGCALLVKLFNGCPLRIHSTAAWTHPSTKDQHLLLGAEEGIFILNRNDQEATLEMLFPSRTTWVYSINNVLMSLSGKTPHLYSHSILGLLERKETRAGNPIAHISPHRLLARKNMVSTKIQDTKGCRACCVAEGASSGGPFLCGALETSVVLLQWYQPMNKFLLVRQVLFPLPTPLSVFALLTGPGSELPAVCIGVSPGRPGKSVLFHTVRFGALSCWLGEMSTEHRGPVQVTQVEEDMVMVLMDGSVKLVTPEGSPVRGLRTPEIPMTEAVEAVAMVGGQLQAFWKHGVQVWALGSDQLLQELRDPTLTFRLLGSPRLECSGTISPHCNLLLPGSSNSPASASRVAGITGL
assay-procedure: FRET Assay for HPK1 (MAP4K1): one step binding assay, displacement of labeled tracer
applied-conditions: 1 μM compound; FRET ratio 665/620, percent of control
Write the quantity with the unit trailing the number.

COCCn1cc(N/C(C)=C2\C(=O)Nc3cnc(-c4c(F)cccc4OC)cc32)cn1 :: 72.2%
CC/C(Nc1cnn(C)c1)=C1/C(=O)Nc2cnc(-c3cnccc3C)cc21 :: 83.5%
C/C(Nc1cnn(C[C@@H](C)O)c1)=C1/C(=O)Nc2cnc(-c3cnccc3C)cc21 :: 72.5%

Moving on to the next compound.
State its inhibition at 1 µM for this compound: C/C(Nc1cc(C)n(C[C@H](C)O)n1)=C1/C(=O)Nc2cnc(-c3c(C)cccc3F)cc21
75.7%
